Test system: RAW264.7
Assay: Inhibition of LPS-stimulated TNF-alpha production in mouse RAW264.7 cells at 1 to 128 ug/ml incubated for 24 hrs by ELISA analysis
Assay type: functional, cell-based
Details: dose 1-128 µg/ml
Active and inactive are the calls of the source. The calls are words filed in the database; no cut-off is given here. Peptide text beside a SMILES is read from it.
Readout kind: inhibition

CC(C)C[C@H](NC(=O)[C@H](CCCCN)NC(=O)[C@H](CC(C)C)NC(=O)[C@H](CCCCN)NC(=O)[C@H](CS)NC(=O)CNC(=O)[C@H](CO)NC(=O)[C@H](CCCCN)NC(=O)[C@@H](NC(=O)[C@H](CS)NC(=O)[C@H](CCCCN)NC(=O)[C@H](CC(C)C)NC(=O)[C@H](CCCCN)NC(=O)[C@@H](N)CC(C)C)[C@@H](C)O)C(N)=O (H-LKLKCTKSGCKLKL-NH2); Active
CC(C)[C@H](N)C(=O)N[C@@H](CCCCN)C(=O)N[C@H](C(=O)N[C@@H](CCCCN)C(=O)N[C@@H](CS)C(=O)N[C@H](C(=O)N[C@@H](CCCCN)C(=O)N[C@@H](CO)C(=O)NCC(=O)N[C@@H](CS)C(=O)N[C@@H](CCCCN)C(=O)N[C@H](C(=O)N[C@@H](CCCCN)C(=O)N[C@H](C(N)=O)C(C)C)C(C)C)[C@@H](C)O)C(C)C (H-VKVKCTKSGCKVKV-NH2); Active
CC(C)[C@H](NC(=O)CNC(=O)[C@H](CC(N)=O)NC(=O)CNC(=O)[C@H](Cc1ccc(O)cc1)NC(=O)[C@H](Cc1ccc(O)cc1)NC(=O)[C@@H](N)CCCCN)C(=O)N[C@@H](Cc1c[nH]cn1)C(=O)N[C@@H](CS)C(=O)N[C@H](C(=O)N[C@@H](CCCCN)C(=O)N[C@@H](CO)C(=O)NCC(=O)N[C@@H](CS)C(=O)N[C@@H](CO)C(=O)N[C@H](C(=O)N[C@@H](CC(N)=O)C(=O)N[C@@H](Cc1c[nH]c2ccccc12)C(N)=O)C(C)C)[C@@H](C)O (H-KYYGNGVHCTKSGCSVNW-NH2); Active
